Where do these numbers come from? They come from the supplement of paper PMC10307832.

Let's look at some compounds and their measured relative viability.
- Test system: NCI-H2087
- Assay: relative viability (nuclei count vs DMSO), 5 days (fraction); higher = more cells survive
- Run parameters: first compound 0.2 µM
Value kind: relative viability

Compound: Cc1csc(=NC2CCCCC2)n1/N=C/c1ccc(O)c(O)c1O [MIM1] + CC1(C)CCC(c2ccc(Cl)cc2)=C(CN2CCN(c3ccc(C(=O)NS(=O)(=O)c4ccc(N[C@H](CCN5CCOCC5)CSc5ccccc5)c(S(=O)(=O)C(F)(F)F)c4)cc3)CC2)C1 [Navitoclax] (partner 0.5 µM)
Measured: 1.05

Compound: CN1CCN(CCOc2cc(OC3CCOCC3)c3c(Nc4c(Cl)ccc5c4OCO5)ncnc3c2)CC1 [Saracatinib] + CS(=O)(=O)CCNCc1ccc(-c2ccc3ncnc(Nc4ccc(OCc5cccc(F)c5)c(Cl)c4)c3c2)o1 [Lapatinib] (partner 2 µM)
Measured: 1.03

Compound: Cc1csc(=NC2CCCCC2)n1/N=C/c1ccc(O)c(O)c1O [MIM1] + COc1cccc2cc(-c3nc([C@H]4CC[C@H](C(=O)O)CC4)n4ncnc(N)c34)[nH]c12 [OSI-027] (partner 0.5 µM)
Measured: 0.688

Compound: CCNC(=O)c1noc(-c2cc(C(C)C)c(O)cc2O)c1-c1ccc(CN2CCOCC2)cc1 [Luminespib] + CC(C)C[C@H](NC(=O)[C@H](Cc1ccccc1)NC(=O)c1cnccn1)B(O)O [Bortezomib] (partner 0.002 µM)
Measured: 0.142

Compound: CN1CCN(CCOc2cc(OC3CCOCC3)c3c(Nc4c(Cl)ccc5c4OCO5)ncnc3c2)CC1 [Saracatinib] + COc1cc2c(Oc3ccc(NC(=O)C4(C(=O)Nc5ccc(F)cc5)CC4)cc3F)ccnc2cc1OCCCN1CCOCC1 [Foretinib] (partner 0.25 µM)
Measured: 0.874

Compound: CN1CCN(CCOc2cc(OC3CCOCC3)c3c(Nc4c(Cl)ccc5c4OCO5)ncnc3c2)CC1 [Saracatinib] + N=C(N)NC(=N)NCCc1ccccc1 [Phenformin] (partner 250 µM)
Measured: 0.39

Compound: CCNC(=O)c1noc(-c2cc(C(C)C)c(O)cc2O)c1-c1ccc(CN2CCOCC2)cc1 [Luminespib] + Nc1ncn([C@H]2C[C@H](O)[C@@H](CO)O2)c(=O)n1 [Decitabine] (partner 2 µM)
Measured: 0.101

Compound: CCNC(=O)c1noc(-c2cc(C(C)C)c(O)cc2O)c1-c1ccc(CN2CCOCC2)cc1 [Luminespib] + COc1cc2c(Oc3ccc(NC(=O)C4(C(=O)Nc5ccc(F)cc5)CC4)cc3F)ccnc2cc1OCCCN1CCOCC1 [Foretinib] (partner 0.25 µM)
Measured: 0.113

Compound: Cc1csc(=NC2CCCCC2)n1/N=C/c1ccc(O)c(O)c1O [MIM1] + CCNC(=O)c1noc(-c2cc(C(C)C)c(O)cc2O)c1-c1ccc(CN2CCOCC2)cc1 [Luminespib] (partner 0.01 µM)
Measured: 0.145

Compound: Cc1csc(=NC2CCCCC2)n1/N=C/c1ccc(O)c(O)c1O [MIM1] + NC(=O)Nc1cc(-c2cccc(F)c2)sc1C(=O)N[C@H]1CCCNC1 [AZD7762] (partner 0.2 µM)
Measured: 1.31

Compound: Cc1csc(=NC2CCCCC2)n1/N=C/c1ccc(O)c(O)c1O [MIM1] + CC(C)C[C@H](NC(=O)[C@H](Cc1ccccc1)NC(=O)c1cnccn1)B(O)O [Bortezomib] (partner 0.002 µM)
Measured: 0.753

Compound: CN1CCN(CCOc2cc(OC3CCOCC3)c3c(Nc4c(Cl)ccc5c4OCO5)ncnc3c2)CC1 [Saracatinib] + Cc1nc(Nc2ncc(C(=O)Nc3c(C)cccc3Cl)s2)cc(N2CCN(CCO)CC2)n1 [Dasatinib] (partner 0.075 µM)
Measured: 0.69

Compound: Cc1csc(=NC2CCCCC2)n1/N=C/c1ccc(O)c(O)c1O [MIM1] + COc1cc2c(Oc3ccc(NC(=O)C4(C(=O)Nc5ccc(F)cc5)CC4)cc3F)ccnc2cc1OCCCN1CCOCC1 [Foretinib] (partner 0.25 µM)
Measured: 1.04

Compound: CCNC(=O)c1noc(-c2cc(C(C)C)c(O)cc2O)c1-c1ccc(CN2CCOCC2)cc1 [Luminespib] + COc1cccc2cc(-c3nc([C@H]4CC[C@H](C(=O)O)CC4)n4ncnc(N)c34)[nH]c12 [OSI-027] (partner 0.5 µM)
Measured: 0.0972

Compound: CCNC(=O)c1noc(-c2cc(C(C)C)c(O)cc2O)c1-c1ccc(CN2CCOCC2)cc1 [Luminespib] + CS(=O)(=O)CCNCc1ccc(-c2ccc3ncnc(Nc4ccc(OCc5cccc(F)c5)c(Cl)c4)c3c2)o1 [Lapatinib] (partner 2 µM)
Measured: 0.174

Compound: CCNC(=O)c1noc(-c2cc(C(C)C)c(O)cc2O)c1-c1ccc(CN2CCOCC2)cc1 [Luminespib] + CC1(C)CCC(c2ccc(Cl)cc2)=C(CN2CCN(c3ccc(C(=O)NS(=O)(=O)c4ccc(N[C@H](CCN5CCOCC5)CSc5ccccc5)c(S(=O)(=O)C(F)(F)F)c4)cc3)CC2)C1 [Navitoclax] (partner 0.5 µM)
Measured: 0.202

Compound: CCNC(=O)c1noc(-c2cc(C(C)C)c(O)cc2O)c1-c1ccc(CN2CCOCC2)cc1 [Luminespib] + CS(=O)(=O)N1CCN(Cc2cc3nc(-c4cccc5[nH]ncc45)nc(N4CCOCC4)c3s2)CC1 [Pictilisib] (partner 1 µM)
Measured: 0.157

====

- Test system: NCI-H1755
- Assay: relative viability (nuclei count vs DMSO), 5 days (fraction); higher = more cells survive
- Run parameters: first compound 0.1 µM
Below, each entry is listed alongside its reported relative viability.
Value kind: relative viability

Molecule: Cc1cn(-c2cc(NC(=O)c3ccc(C)c(Nc4nccc(-c5cccnc5)n4)c3)cc(C(F)(F)F)c2)cn1 [Nilotinib] + Cc1nc(NC(=O)N2CCC[C@H]2C(N)=O)sc1-c1ccnc(C(C)(C)C(F)(F)F)c1 [Alpelisib] (partner 2 µM)
Value kind: relative viability
Measured: 0.785
//
Molecule: Cc1cn(-c2cc(NC(=O)c3ccc(C)c(Nc4nccc(-c5cccnc5)n4)c3)cc(C(F)(F)F)c2)cn1 [Nilotinib] + N=C(N)NC(=N)NCCc1ccccc1 [Phenformin] (partner 250 µM)
Value kind: relative viability
Measured: 0.486

====

- Tested on: COR-L 105
- Assay: relative viability (nuclei count vs DMSO), 5 days (fraction); higher = more cells survive
- Run parameters: first compound 8 µM
Hi! Just check whether relative viability is below 0.7. Below gives True, equal or above gives False.

Compound: Nc1cccc2c1CN(C1CCC(=O)NC1=O)C2=O (stereo not given) [Lenalidomide] + COc1cc2c(Oc3ccc(NC(=O)C4(C(=O)Nc5ccc(F)cc5)CC4)cc3F)ccnc2cc1OCCCN1CCOCC1 [Foretinib] (partner 0.25 µM)
Label value: False
--
Compound: Nc1cccc2c1CN(C1CCC(=O)NC1=O)C2=O (stereo not given) [Lenalidomide] + Cc1nc(NC(=O)N2CCC[C@H]2C(N)=O)sc1-c1ccnc(C(C)(C)C(F)(F)F)c1 [Alpelisib] (partner 2 µM)
Label value: False
--
Compound: Nc1cccc2c1CN(C1CCC(=O)NC1=O)C2=O (stereo not given) [Lenalidomide] + Cc1cc(Nc2cc(N3CCN(C)CC3)nc(Sc3ccc(NC(=O)C4CC4)cc3)n2)n[nH]1 [Tozasertib] (partner 0.1 µM)
Label value: True
--
Compound: Nc1cccc2c1CN(C1CCC(=O)NC1=O)C2=O (stereo not given) [Lenalidomide] + N=C(N)NC(=N)NCCc1ccccc1 [Phenformin] (partner 250 µM)
Label value: True

====

The entries below come with measured relative viability values attached.
- System: PC-14
- Assay: relative viability (nuclei count vs DMSO), 5 days (fraction); higher = more cells survive
- Run parameters: first compound 20 µM
Value kind: relative viability

Molecule: Cc1csc(=NC2CCCCC2)n1/N=C/c1ccc(O)c(O)c1O [MIM1] + CC(C)C[C@H](NC(=O)[C@H](Cc1ccccc1)NC(=O)c1cnccn1)B(O)O [Bortezomib] (partner 0.002 µM)
Value kind: relative viability
Measured: 0.192
--
Molecule: Cc1csc(=NC2CCCCC2)n1/N=C/c1ccc(O)c(O)c1O [MIM1] + O=C(CCCCCCC(=O)Nc1ccccc1)NO [Vorinostat] (partner 1 µM)
Value kind: relative viability
Measured: 0.118
--
Molecule: Cc1csc(=NC2CCCCC2)n1/N=C/c1ccc(O)c(O)c1O [MIM1] + CCNC(=O)c1noc(-c2cc(C(C)C)c(O)cc2O)c1-c1ccc(CN2CCOCC2)cc1 [Luminespib] (partner 0.01 µM)
Value kind: relative viability
Measured: 0.144
--
Molecule: Cc1csc(=NC2CCCCC2)n1/N=C/c1ccc(O)c(O)c1O [MIM1] + NC(=O)Nc1cc(-c2cccc(F)c2)sc1C(=O)N[C@H]1CCCNC1 [AZD7762] (partner 0.2 µM)
Value kind: relative viability
Measured: 0.111
